Cited source: ChEMBL document CHEMBL1268883

method.description: Induction of morphine release at 37.5 nmol in presence of 50% rat plasma assessed as disappearance of compound peak during 5 to 10 mins at 250 uM
Assay type: cell-free
applied.conditions: read-out: Activity
measured.property: metabolised at 250 µM

Noted for "CN1CC[C@]23c4c5ccc(OC(=O)CCC(=O)OC(C)(C)C)c4O[C@H]2[C@@H](O)C=C[C@H]3[C@H]1C5" : its metabolised at 250 µM reads > 90%

* * *

method.description: Induction of morphine release at 37.5 nmol in presence of 50% human plasma assessed as disappearance of compound peak during 5 to 10 mins at 250 uM
Format: cell-free
applied.conditions: read-out: Activity
measured.property: metabolised at 250 µM

"CN1CC[C@]23c4c5ccc(OC(=O)CCC(=O)OC(C)(C)C)c4O[C@H]2[C@@H](O)C=C[C@H]3[C@H]1C5" has a reported metabolised at 250 µM of > 90%

* * *

method.description: Induction of morphine release at 37.5 nmol in presence of 50% mouse plasma assessed as disappearance of compound peak during 5 to 10 mins at 250 uM
Type: cell-free
applied.conditions: read-out: Activity
measured.property: metabolised at 250 µM

The reported value for "CN1CC[C@]23c4c5ccc(OC(=O)CCC(=O)OC(C)(C)C)c4O[C@H]2[C@@H](O)C=C[C@H]3[C@H]1C5" in terms of metabolised at 250 µM is > 90%
